Tested on: Plasmodium berghei
protocol_text: Luciferase/luciferin-expressing antifolate-resistant parasites were used to infect a culture of HepG2 cells that were pre-incubated with compounds. Infected hepatocytes emit light due to the luciferase reaction. Assay results are presented as the percent inhibition of light emission compared to control. […]
Format: functional
run_parameters: sporozoite, FFLUC_HILL_SLOPE 178, FFLUC_R_SQUARED 0.15, HEPG2TOX_HILL_SLOPE 0.174, HEPG2TOX_R_SQUARED 0.586, PBLUC_HILL_SLOPE 2.73, PBLUC_R_SQUARED 0.361, read-out: LUCIFERASE INFECTION ASSAY - IC50
property_measured: pIC50
By convention, pIC50 is the negative base-10 log of a molar concentration.

API: value(readout= pIC50, system= Plasmodium berghei, query= `CCCOc1ccc(/C=C/C(=O)Nc2ccc(Br)c(C(F)(F)F)c2)cc1OCC` ) 5.10

----------
Tested on: Plasmodium berghei
protocol_text: Luciferase/luciferin-expressing antifolate-resistant parasites were used to infect a culture of HepG2 cells that were pre-incubated with compounds. Infected hepatocytes emit light due to the luciferase reaction. Assay results are presented as the percent inhibition of light emission compared to control. […]
Format: functional
run_parameters: sporozoite, HEPG2TOX_HILL_SLOPE 0.263, HEPG2TOX_R_SQUARED 0.596, PBLUC_HILL_SLOPE 7.27, PBLUC_R_SQUARED 0.0377, read-out: LUCIFERASE INFECTION ASSAY - IC50
pIC50: −log10 of the molar value.
property_measured: pIC50

Entry `NS(=O)(=O)c1ccc(-n2ncc(Nc3ccc(F)cc3)c(Cl)c2=O)cc1` has what pIC50? < 5.00

----------
Test system: Plasmodium berghei
protocol_text: Luciferase/luciferin-expressing antifolate-resistant parasites were used to infect a culture of HepG2 cells that were pre-incubated with compounds. Infected hepatocytes emit light due to the luciferase reaction. Assay results are presented as the percent inhibition of light emission compared to control. […]
Assay type: functional
run_parameters: sporozoite, HEPG2TOX_HILL_SLOPE 1.32, HEPG2TOX_R_SQUARED 0.694, read-out: LUCIFERASE INFECTION ASSAY - IC50
property_measured: IC50

Entry `CCOC(=O)c1oc2ccc(Br)cc2c1CSc1nnc(-c2cccs2)n1Cc1ccccc1` has what IC50? > 10 µM

----------
For each of the molecules below, state its IC90.
System: Plasmodium berghei
protocol_text: Luciferase/luciferin-expressing antifolate-resistant parasites were used to infect a culture of HepG2 cells that were pre-incubated with compounds. Infected hepatocytes emit light due to the luciferase reaction. Assay results are presented as the percent inhibition of light emission compared to control. […]
Type: functional
run_parameters: sporozoite, read-out: LUCIFERASE INFECTION ASSAY - IC90

Entry `CC(C)Cn1c(=O)n(C)c(=O)c2c(SCC#N)nc(CC(C)(C)C)nc21` has what IC90? > 10 µM

Entry CCOC(=O)c1c(C)[nH]c(C(=O)CSc2nnc(C3COc4ccccc4O3)n2-c2ccccc2)c1C (stereo unspecified) has what IC90? > 10 µM

Entry `CC(C)(C)c1cc2nc(C(F)(F)F)cc(NNC(=O)Nc3ccccc3)n2n1` has what IC90? > 8.41 µM

Entry `CC(C)c1cccc(C(C)C)c1NC(=O)COc1ccc(CCO)cc1-n1nc2ccccc2n1` has what IC90? 6.85 µM

Entry OC(c1ccc(Cl)c(F)c1)c1nc(-c2cccc(C(F)(F)F)c2)c[nH]1 (stereo unspecified) has what IC90? > 8.9 µM

Entry `CC(=O)c1cccc(-c2cnc3ccc(-c4cccc(C(=O)NCCO)c4)nn23)c1` has what IC90? 2.32 µM

Entry `Cc1c(C)c(C)c(S(=O)(=O)Nc2ccc3c[nH]nc3c2)c(C)c1C` has what IC90? > 10 µM

Entry `Cc1cc2ccccc2n1CC(=O)NCc1ccc(NC(=O)c2ccco2)cc1` has what IC90? > 10 µM

Entry `CCNC(=O)Cn1c(=O)/c(=C\c2ccccc2Cl)s/c1=C\C(=O)c1ccccc1C` has what IC90? > 10 µM

Entry `O=C(Nc1nc2ccccn2c1C(=O)NC1CCCCC1)c1c(F)ccc(F)c1F` has what IC90? > 7.93 µM

Entry `COc1ccc2c(c1)C(=O)C(=O)N2Cc1ccccc1Cl` has what IC90? > 10.9 µM

Entry `Cc1ccc(-c2nc(C(=O)N3CCCc4ccccc43)cs2)cc1` has what IC90? > 10 µM

Entry `CC(C)(C)c1ccc(OC(=O)Nc2ccc(Cl)c(Cl)c2)c(C(C)(C)C)c1` has what IC90? > 8.37 µM

Entry `Cn1c(CSc2cccs2)nnc1SCC(=O)Nc1ccc(F)cc1F` has what IC90? > 8 µM

Entry `COc1cc(-c2cnc3cnc(-c4cccs4)cn23)cc(OC)c1OC` has what IC90? 2.1 µM

Entry `CCN(C(=O)COC(=O)c1nc(-c2ccccc2)n2c1CCCCC2)c1ccccc1` has what IC90? > 10 µM

Entry `COC(=O)c1sccc1Oc1ccc(C(F)(F)F)cc1NC(=S)Nc1cc(Cl)cc(Cl)c1` has what IC90? > 6.33 µM

Entry `CCN(CC)c1ccc(/C=N/NC(=S)NC(C)C)c(O)c1` has what IC90? > 10 µM

Entry `Cc1ccnc2nc(C(=O)Nc3cc(C(F)(F)F)ccc3N3CCCCCC3)nn12` has what IC90? 0.413 µM

Entry `Cc1cc(-c2nc(=O)c3ccccc3[nH]2)c(C)n1-c1cccc(S(=O)(=O)N2CCOCC2)c1` has what IC90? > 10 µM

Entry `COc1ccc(/C=C/C(=O)Nc2ccc(C34CC5CC(CC(O)(C5)C3)C4)cc2)cc1OC` has what IC90? 4.89 µM
